# Test system: J774.A1
# protocol: Stimulation of TNFalpha production in mouse J774.A1 cells at 50 uM after 24 hrs by ELISA relative to untreated control
# Format: functional
readout label: fold change (FC)
Format: numeric value only, no unit, no commentary.

A selection of reference data follows.
smiles string | measured
Cc1ccc(-c2ccc(/C=N/NC(=O)c3cccnc3)o2)cc1Cl | 60
O=C(N/N=C/c1ccc(-c2cccc(Cl)c2Cl)o1)c1ccccc1 | 8
COc1cc(/C=N\NC(=O)c2ccc3c(c2)OCO3)ccc1OCc1ccccc1 | 7
O=C(N/N=C/c1ccc(-c2ccc(Cl)cc2)o1)c1cncc(Br)c1 | 25
Cc1ccc(-c2ccc(/C=N/NC(=O)c3cncc(Br)c3)o2)cc1Cl | 10

[Q] Identify fold change (FC) associated with the compound Cc1ccc(-c2ccc(/C=N/NC(=O)c3ccncc3)o2)cc1Cl
[A] 50
